// reported pIC50 for each item listed
- Assay summary: Antiproliferative activity against human PC3 cells after 48 hrs by MTT assay
- Format: functional, cell-based
- Particulars: PC-3, 48 h
pIC50: −log10 of the molar value.
Observation type: pIC50

Smi	Observation type	Recorded measurement
C[C@H](NC(=O)OC(C)(C)C)C(=O)O[C@@H]1C[C@@H]2[C@@]3(C)CC[C@H](O)C(C)(C)[C@@H]3CC[C@@]2(C)[C@]2(C)CC[C@H]([C@](C)(O)CCCC(C)(C)O)[C@@H]12	pIC50	4.31
C[C@H](N)C(=O)O[C@H]1CC[C@]2(C)[C@H]3C[C@@H](O)[C@@H]4[C@@H]([C@](C)(O)CCCC(C)(C)O)CC[C@@]4(C)[C@]3(C)CC[C@H]2C1(C)C	pIC50	5.12
C[C@@H](O)[C@H](N)C(=O)O[C@H]1CC[C@]2(C)[C@H]3C[C@@H](O)[C@@H]4[C@@H]([C@](C)(O)CCCC(C)(C)O)CC[C@@]4(C)[C@]3(C)CC[C@H]2C1(C)C	pIC50	5.05
CC(C)(O)CCC[C@@](C)(O)[C@H]1CC[C@]2(C)[C@@H]1[C@H](O)C[C@@H]1[C@@]3(C)CC[C@H](OC(=O)[C@@H](N)CCCNC(=N)N)C(C)(C)[C@@H]3CC[C@]12C	pIC50	5.21
CC(C)(O)CCC[C@@](C)(O)[C@H]1CC[C@]2(C)[C@@H]1[C@H](O)C[C@@H]1[C@@]3(C)CC[C@H](OC(=O)[C@H](CCCNC(=N)N)NC(=O)OC(C)(C)C)C(C)(C)[C@@H]3CC[C@]12C	pIC50	4.92
CC(C)C[C@H](N)C(=O)O[C@H]1CC[C@]2(C)[C@H]3C[C@@H](O)[C@@H]4[C@@H]([C@](C)(O)CCCC(C)(C)O)CC[C@@]4(C)[C@]3(C)CC[C@H]2C1(C)C	pIC50	5.10
CC(C)(O)CCC[C@@](C)(O)[C@H]1CC[C@]2(C)[C@@H]1[C@H](OC(=O)[C@H](Cc1ccc(O)cc1)NC(=O)OC(C)(C)C)C[C@@H]1[C@@]3(C)CC[C@H](O)C(C)(C)[C@@H]3CC[C@]12C	pIC50	4.20
